# subject-of-test: p62 (Homo sapiens)
# Construct: p62-mCherry plasmid expressed in HEK293T, RIPA lysate (MST); endogenous p62 in human osteosarcoma cells (CETSA); p62 mutants transfected into 143B cells (DARTS)
# Sequence (Q13501 2-440): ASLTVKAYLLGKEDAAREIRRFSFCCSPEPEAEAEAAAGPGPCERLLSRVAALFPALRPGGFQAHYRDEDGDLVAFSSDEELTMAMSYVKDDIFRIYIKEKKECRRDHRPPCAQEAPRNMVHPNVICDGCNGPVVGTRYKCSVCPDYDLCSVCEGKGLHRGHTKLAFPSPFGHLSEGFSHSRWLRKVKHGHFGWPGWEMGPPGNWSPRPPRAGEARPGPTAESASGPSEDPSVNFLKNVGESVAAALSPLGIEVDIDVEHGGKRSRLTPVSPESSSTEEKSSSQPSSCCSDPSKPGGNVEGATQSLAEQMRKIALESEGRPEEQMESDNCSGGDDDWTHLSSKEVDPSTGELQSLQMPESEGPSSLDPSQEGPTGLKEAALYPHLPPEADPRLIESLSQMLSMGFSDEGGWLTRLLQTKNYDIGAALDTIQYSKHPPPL
# assay-comment: microscale thermophoresis (Monolith NT.[…])
recorded-metric: pKd
pKd here: minus log base 10 of the concentration, concentration in moles per litre.

pKd for C[S@@+]([O-])CCCCN=C=S is 4.81
